Biological target: Mouse ACVR2A (mouse, UniProt P27038 20-135, limits assumed); note: test concentration or dose not given here
Sequence (P27038 20-135 limits assumed): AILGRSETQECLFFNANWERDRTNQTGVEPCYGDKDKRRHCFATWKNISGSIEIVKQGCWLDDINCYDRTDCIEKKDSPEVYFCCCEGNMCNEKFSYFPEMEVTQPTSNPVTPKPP
Assay: ELISA
reportedMetric: optical density (OD)
I only need the number, in OD, no unit after it.

Use the examples below as a reference point.
[in] Tell me measured optical density for 368_D11 (antibody, V domains shown) VH: EVQLLESGGGLVQPGGSLRLSCAASGFTFDDYGMNWVRQAPGKGLEWVSNINYNGGYKSYADSVKGRFTISRDNSKNTLYLQMNSLRAEDTAVYYCARSANWHDTALDYWGQGTLVTVSS VL: DIQMTQSPSSLSASVGDRVTITCRASQSILTYLNWYQQKPGKAPKLVIYAATSRASGVPSRFSGSGSGTDFTLTISSLQPEDFATYYCQQSYDLPLTFGGGTKVEIK please.
[out] 2.96

[in] Tell me measured optical density for 369_E12 (antibody, V domains shown) VH: EVQLLESGGGLVQPGGSLRLSCAASGFTFSSYGMHWVRQAPGKGLEWVASINYNSGYTSYADSVKGRFTISRDNSKNTLYLQMNSLRAEDTAVYYCARSANWHDTALDYWGQGTLVTVSS VL: DIQMTQSPSSLSASVGDRVTITCRASQSIISYLNWYQQKPGKAPKLLIYAATSRASGVPSRFSGSGSGTDFTLTISSLQPEDFATYYCQQSYESPLTFGGGTKVEIK please.
[out] 2.69

Now for the binder whose optical density we want.
[in] Tell me measured optical density for 369_C04 (antibody, V domains shown) VH: EVQLLESGGGLVQPGGSLRLSCAASGFTFSSYSMNWVRQAPGKGLEWVSNINYNGGYTGYADSVKGRFTISRDNSKNTLYLQMNSLRAEDTAVYYCARSANWHDTALDYWGQGTLVTVSS VL: DIQMTQSPSSLSASVGDRVTITCRASQSILTYVNWYQQKPGKAPKLLIYTTTSLHSGVPSRFSGSGSGTDFTLTISSLQPEDFATYYCQQSYNNPLTFGGGTKVEIK please.
[out] 1.65
